# measurement.target: human H3 receptor (Homo sapiens)
# Sequence (Q9Y5N1 whole entry): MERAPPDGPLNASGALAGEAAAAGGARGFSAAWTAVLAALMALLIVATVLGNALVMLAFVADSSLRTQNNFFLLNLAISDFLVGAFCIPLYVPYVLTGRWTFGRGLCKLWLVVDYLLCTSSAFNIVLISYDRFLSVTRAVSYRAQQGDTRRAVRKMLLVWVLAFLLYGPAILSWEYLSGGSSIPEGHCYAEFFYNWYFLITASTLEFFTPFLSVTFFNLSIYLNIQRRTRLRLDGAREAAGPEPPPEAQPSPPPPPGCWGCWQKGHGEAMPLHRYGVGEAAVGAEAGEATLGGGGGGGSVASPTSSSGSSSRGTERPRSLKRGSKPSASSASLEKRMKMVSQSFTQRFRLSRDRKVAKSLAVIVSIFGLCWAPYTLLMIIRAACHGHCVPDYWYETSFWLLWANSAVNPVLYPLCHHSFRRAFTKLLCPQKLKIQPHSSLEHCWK
# protocol.text: H3 Receptor Binding (Human) Method 2, [125I]-iodoproxyfan competitive radioligand binding
# Parameters: expressed in transfected cells
# particulars: read-out: Human H3 Ki
pKi: −log10 of the molar value.
readout.type: pKi

# example entries with known answers
• Cc1cnc(F)cc1O[C@@H]1CN[C@@H](C(=O)N2CCCN(C3CCC3)CC2)C1 = 8.70
• CC(C)(C)OC(=O)N1C[C@@H](Oc2cccnc2)C[C@@H]1C(=O)N1CCCN(C2CCC2)CC1 = 8.70
• Cc1cnc(O[C@@H]2CN[C@@H](C(=O)N3CCCN(C4CCC4)CC3)C2)cc1I = 8.70
• O=C([C@H]1C[C@@H](O)CN1C(=O)OCc1ccccc1)N1CCCN(C2CCC2)CC1 = 7.30
• CC(C)(C)OC(=O)N1CCC[C@]1(Cc1ccc(F)cc1)C(=O)N1CCCN(C2CCC2)CC1 = 6.59
• CC(=O)N1C[C@@H](Oc2ccsc2)C[C@@H]1C(=O)N1CCCN(C2CCC2)CC1 = 8.52

P = CC(C)(C)OC(=O)N1C[C@@H](Oc2ccccc2)C[C@H]1C(=O)N1CCCN(C2CCC2)CC1
Q = O=C([C@H]1C[C@H](Oc2ccc(F)cc2)CN1)N1CCN(C2CCCC2)CC1
R = O=C([C@H]1C[C@H](Oc2cccnc2)CN1)N1CCCN(C2CCC2)CC1
S = CC(C)(C)OC(=O)N1C[C@H](Oc2ccccc2)C[C@H]1C(=O)N1CCCN(C2CCC2)CC1
T = CC(=O)N1C[C@H](Cc2ccc(F)cc2)C[C@H]1C(=O)N1CCCN(C2CCC2)CC1
Your job: order these 5 records by pKi, ascending. Give the order by naming the labels one after another as requested.
T, P, Q, S, R
(T: 5.68, P: 6.90, Q: 7.40, S: 7.85, R: 8.52)

1 = CC(C)(C)OC(=O)N1C[C@@H](Oc2cccc(F)c2)C[C@@H]1C(=O)N1CCC(N2CCCC2)C1 (stereo partly shown)
2 = Cc1ccccc1O[C@@H]1CN[C@@H](C(=O)N2CCCN(C3CCC3)CC2)C1
3 = CC(C)(C)OC(=O)N1C[C@@H](Sc2ccc(F)cc2)C[C@@H]1C(=O)N1CCCN(C2CCC2)CC1
4 = O=C([C@@H]1C[C@@H](Cc2ccc(F)cc2)CN1)N1CCCN(C2CCC2)CC1
Put these in order: smallest pKi first, largest last. Lab note: final answer is the ordered label list.
4, 1, 3, 2

###

pKi: −log10 of the molar value.
Reported pKi values, cloned human H3 receptors (Homo sapiens, UniProt Q9Y5N1).
readout.type: pKi

Sample records with pKi:
* CC(C)(C)OC(=O)N1C[C@@H](Oc2cccc(Cl)c2)C[C@@H]1C(=O)N1CCCN(C2CCC2)CC1 [Example 20] | 7.92
* CC(C)(C)OC(=O)N1C[C@@H](Oc2ccc(F)cc2)C[C@@H]1C(=O)N1CCCN(C2CCC2)CC1 [Example 18] | 8.30
* CC(C)C(=O)N1C[C@@H](Oc2ccc(F)cc2)C[C@H]1C(=O)N1CCCN(C2CCC2)CC1 [Example 117] | 6.10
* CSc1ccc(O[C@H]2CN[C@H](C(=O)N3CCCN(C4CCC4)CC3)C2)cc1 [Example 96] | 7.96
* CCC(=O)N1C[C@@H](Oc2ccc(F)cc2)C[C@H]1C(=O)N1CCCN(C2CCC2)CC1 [Example 116] | 6.82

P = CC(C)(C)OC(=O)N1C[C@@H](Oc2cccc(F)c2)C[C@@H]1C(=O)N1CCCN(C2CCC2)CC1 [Example 17]
Q = CC(C)(C)OC(=O)N1C[C@@H](Oc2ccc(F)cc2)C[C@H]1C(=O)N1CCCN(C2CCC2)CC1 [Example 11]
# return whichever of P and Q has the smaller pKi Answer format: the label of the selected item.
Q
(Q: 7.43, P: 8.52)

Each recorded value in this set is attributed to patent US8236792B2.
